Target: T1, LILRB2 chimeric receptor on LILRB2 reporter cells (extracellular domain of LILRB2 fused with … (UniProt Q8N423 22-460))
T1 construct: extracellular domain;domain: transmembrane/intracellular domains; associates with DAP12; also called LILRB2-expressing reporter cells
Experiment: flow cytometry, LILRB2 reporter cells
Endpoint name: % of cells anti-hIgG APC+ (%)
Answers are plain numbers, in %.

* B2-17 (antibody, V domains shown, also called B2-17_HC; B2-17_LC) VH: EVQLLDSGPRLLKPSETLSLTCGVSGVSTSSTHWWSWVRQTPGKGLEWIGEILHNGNTNSNPSLKSRVSMSIDKSRNQFSLQLKSMTAADTAVYYCASASPNWGASGAFDAWAQGTMVTVSS VL: QSVLTQPPSASATPGQRVTISCSGSSSNIGSNPVNWYQQVPGMAPELVMYSDNQRPSGVPDRFSGSNSGTSASLAISGLQSEDEADYYCSTWDDSLNGLVFGTGTKVTVL | 94.3

Please look at the following binder next.
Return value of % of cells anti-hIgG APC+ for input B2-22 (antibody, V domains shown, also called B2-22_HC; B2-22_LC) VH: QVQLVQSGAEVKKPGASVKVSCKASGYTFTSYGISWVRQAPGQGLEWMGWISAYNGNTNYAQKLQGRVTMTTDTSTSTAYMELRSLRSDDTAVYYCARVGSYGDYWGQGTLVTVSS VL: QSPSSLSASVGDRVTITCRASQGISNYLAWYQQKPGKVPKLLIYAASTLQSGVPSRFSGSGSGTDFTLTISSLQPEDVATYYCQKYNSAPLTFGGGTKLEIK , no commentary.
0.19
